Experiment: Observed clearance ratio and fraction reabsorbed (Freab, Freab′) calculated from CLR, fu,p and GFR
Conditions: calculated from observed CLR, fu,p and GFR
test.readout: Apparent Freab’

>  <compound>
Cc1cc(NC(=O)C2=C(O)c3ccccc3S(=O)(=O)N2C)no1 [Isoxicam]

>  <reported>
1.003

$$$$
>  <compound>
C[C@]12C=CC(=O)C=C1CC[C@@H]1[C@@H]2[C@@H](O)C[C@@]2(C)[C@H]1CC[C@]2(O)C(=O)CO [Prednisolone]

>  <reported>
0.100

$$$$
>  <compound>
CN1CCN(c2cc3c(cc2F)c(=O)c(C(=O)O)cn3-c2ccc(F)cc2)CC1 [Difloxacin]

>  <reported>
0.947

$$$$
>  <compound>
CC(=O)NC[C@H]1CN(c2ccc(N3CCOCC3)c(F)c2)C(=O)O1 [Linezolid]

>  <reported>
0.581

$$$$
>  <compound>
C=CCOc1ccccc1OCC(O)CNC(C)C (stereo not drawn) [Oxprenolol]

>  <reported>
0.447

$$$$
>  <compound>
N=C(N)c1ccc(CNC(=O)[C@@H]2CCN2C(=O)[C@H](NCC(=O)O)C2CCCCC2)cc1 [Melagatran]

>  <reported>
-0.021

$$$$
>  <compound>
CN(C)CCCC1(c2ccc(F)cc2)OCc2cc(C#N)ccc21 (stereo not drawn) [Citalopram]

>  <reported>
-0.087

$$$$
>  <compound>
O=C(NCCN1CCOCC1)c1ccc(Cl)cc1 [Moclobemide]

>  <reported>
0.951

$$$$
>  <compound>
CN(C)CCC=C1c2ccccc2COc2ccccc21 [Doxepin]

>  <reported>
0.643

$$$$

###

Here the recorded Apparent Freab is given for each entry.
Test: Observed clearance ratio and fraction reabsorbed (Freab, Freab′) calculated from CLR, fu,p and GFR
Settings: calculated from observed CLR, fu,p and GFR

>  <compound>
NC(=O)c1ncn([C@@H]2O[C@H](CO)[C@@H](O)[C@H]2O)n1

>  <Apparent Freab>
0.084

$$$$
>  <compound>
Cc1cc(NC(=O)C2=C(O)c3ccccc3S(=O)(=O)N2C)no1

>  <Apparent Freab>
0.995

$$$$
>  <compound>
CCCc1cc(=O)[nH]c(=S)[nH]1

>  <Apparent Freab>
0.833

$$$$
>  <compound>
C[C@@H]1CN(c2c(F)c(N)c3c(=O)c(C(=O)O)cn(C4CC4)c3c2F)C[C@H](C)N1

>  <Apparent Freab>
0.731

$$$$
>  <compound>
CC(C)NCC(O)COc1ccc(CC(N)=O)cc1 (centres unmarked)

>  <Apparent Freab>
-0.247

$$$$
>  <compound>
C[C@]12C=CC(=O)C=C1CC[C@@H]1[C@@H]2[C@@H](O)C[C@@]2(C)[C@H]1CC[C@]2(O)C(=O)CO

>  <Apparent Freab>
0.099

$$$$
>  <compound>
CN1CCN(c2cc3c(cc2F)c(=O)c(C(=O)O)cn3-c2ccc(F)cc2)CC1

>  <Apparent Freab>
0.939

$$$$
>  <compound>
CCCN1CCCC[C@H]1C(=O)Nc1c(C)cccc1C

>  <Apparent Freab>
0.547

$$$$
>  <compound>
CN(C)[C@@H]1C(O)=C(C(N)=O)C(=O)[C@@]2(O)C(O)=C3C(=O)c4c(O)cccc4[C@@](C)(O)[C@H]3[C@H](O)[C@@H]12

>  <Apparent Freab>
0.019

$$$$
>  <compound>
NCC1(CC(=O)O)CCCCC1

>  <Apparent Freab>
0.183

$$$$
>  <compound>
Cc1cccc(C)c1OCC(C)N (centres unmarked)

>  <Apparent Freab>
-0.252

$$$$
>  <compound>
CCCCC1=NC2(CCCC2)C(=O)N1Cc1ccc(-c2ccccc2-c2nnn[nH]2)cc1

>  <Apparent Freab>
0.623

$$$$
>  <compound>
C[C@H]1C[C@H]2[C@@H]3CCC4=CC(=O)C=C[C@]4(C)[C@@]3(F)[C@@H](O)C[C@]2(C)[C@@]1(O)C(=O)CO

>  <Apparent Freab>
0.780

$$$$
>  <compound>
CCCN(CCC)S(=O)(=O)c1ccc(C(=O)O)cc1

>  <Apparent Freab>
0.955

$$$$

###

Assay: physchem

>  <compound>
COCCc1ccc(OCC(O)CNC(C)C)cc1 (stereo not shown) [Metoprolol]

>  <pKa>
9.4

$$$$

###

Here the recorded Apparent Freab is given for each entry.
Assay: Observed clearance ratio and fraction reabsorbed (Freab, Freab′) calculated from CLR, fu,p and GFR
Conditions: calculated from observed CLR, fu,p and GFR
test.readout: Apparent Freab

>  <compound>
CC1(C)O[C@@H]2[C@@H](CO[C@@]3(COS(N)(=O)=O)OC(C)(C)O[C@@H]23)O1 [Topiramate]

>  <reported>
0.856

$$$$
>  <compound>
Cc1c(F)c(N2CCNC(C)C2)cc2c1c(=O)c(C(=O)O)cn2C1CC1 (centres unmarked)

>  <reported>
0.350

$$$$
>  <compound>
COc1ccc(C(CN(C)C)C2(O)CCCCC2)cc1 (centres unmarked)

>  <reported>
0.088

$$$$
>  <compound>
CN(C)CCCC1(c2ccc(F)cc2)OCc2cc(C#N)ccc21 (centres unmarked)

>  <reported>
-0.086

$$$$
>  <compound>
CN(C)CCC=C1c2ccccc2COc2ccccc21 [Doxepin]

>  <reported>
0.638

$$$$
>  <compound>
Cc1cccc(C)c1NC(=O)C(C)N (centres unmarked) [Tocainide]

>  <reported>
0.181

$$$$
>  <compound>
CC[C@@H](C(N)=O)N1CCCC1=O

>  <reported>
0.636

$$$$
>  <compound>
CCCNC(=O)NS(=O)(=O)c1ccc(Cl)cc1 [Chlorpropamide]

>  <reported>
0.907

$$$$
>  <compound>
CC(C)NCC(O)COc1ccc(CCOCC2CC2)cc1 (centres unmarked)

>  <reported>
0.081

$$$$
>  <compound>
CCN(CC)CCCN(c1ccccc1)C1Cc2ccccc2C1

>  <reported>
0.785

$$$$
>  <compound>
CN(C)[C@@H]1C(O)=C(C(N)=O)C(=O)[C@@]2(O)C(O)=C3C(=O)c4c(O)cccc4[C@@](C)(O)[C@H]3C[C@@H]12

>  <reported>
0.053

$$$$
>  <compound>
O=C(NCCN1CCOCC1)c1ccc(Cl)cc1 [Moclobemide]

>  <reported>
0.943

$$$$
>  <compound>
C=CCOc1ccccc1OCC(O)CNC(C)C (centres unmarked)

>  <reported>
0.443

$$$$
>  <compound>
OC(Cn1cncn1)(Cn1cncn1)c1ccc(F)cc1F

>  <reported>
0.848

$$$$
>  <compound>
Cn1c(=O)c2c(ncn2C)n(C)c1=O

>  <reported>
0.987

$$$$
>  <compound>
COCCc1ccc(OCC(O)CNC(C)C)cc1 (centres unmarked)

>  <reported>
-0.050

$$$$
>  <compound>
C[C@]12C=CC(=O)C=C1CC[C@@H]1[C@@H]2C(=O)C[C@@]2(C)[C@H]1CC[C@]2(O)C(=O)CO

>  <reported>
0.299

$$$$
>  <compound>
N=C(N)c1ccc(CNC(=O)[C@@H]2CCN2C(=O)[C@H](NCC(=O)O)C2CCCCC2)cc1

>  <reported>
-0.021

$$$$
>  <compound>
CC(=O)NC[C@H]1CN(c2ccc(N3CCOCC3)c(F)c2)C(=O)O1

>  <reported>
0.576

$$$$
>  <compound>
Cc1ncc([N+](=O)[O-])n1CCO

>  <reported>
0.918

$$$$

###

Tested on: Caco-2 cell monolayers
Test: Caco-2 apparent permeability (Papp), apical to basolateral, pH 6.5-7.4 gradient, efflux inhibitor cocktail
Details: Caco-2, apical to basolateral, pH 6.5 to 7.4, efflux inhibitor cocktail, 2 h
test.readout: Papp

>  <compound>
C[C@@H](c1ncncc1F)[C@](O)(Cn1cncn1)c1ccc(F)cc1F

>  <test.readout>
Papp

>  <reported>
96.51 × 10^− 6 cm/s

$$$$
>  <compound>
C[C@@H]1CN(c2c(F)c(N)c3c(=O)c(C(=O)O)cn(C4CC4)c3c2F)C[C@H](C)N1

>  <test.readout>
Papp

>  <reported>
49.83 × 10^− 6 cm/s

$$$$
>  <compound>
C=CCOc1ccccc1OCC(O)CNC(C)C (stereo not drawn)

>  <test.readout>
Papp

>  <reported>
29.95 × 10^− 6 cm/s

$$$$
>  <compound>
CN(C)[C@@H]1C(O)=C(C(N)=O)C(=O)[C@@]2(O)C(O)=C3C(=O)c4c(O)cccc4[C@@](C)(O)[C@H]3[C@H](O)[C@@H]12

>  <test.readout>
Papp

>  <reported>
0.85 × 10^− 6 cm/s

$$$$
>  <compound>
CCCNC(=O)NS(=O)(=O)c1ccc(Cl)cc1 [Chlorpropamide]

>  <test.readout>
Papp

>  <reported>
88.1 × 10^− 6 cm/s

$$$$
>  <compound>
Cc1cccc(C)c1NC(=O)C(C)N (stereo not drawn) [Tocainide]

>  <test.readout>
Papp

>  <reported>
19 × 10^− 6 cm/s

$$$$
